Just for reference, patent US20060004197A1 is where these values come from.

Molecular target: Recombinant human Src (Homo sapiens, UniProt P12931)
Construct: made in house; host or cells: baculovirus-insect cell system
Sequence (P12931 whole entry): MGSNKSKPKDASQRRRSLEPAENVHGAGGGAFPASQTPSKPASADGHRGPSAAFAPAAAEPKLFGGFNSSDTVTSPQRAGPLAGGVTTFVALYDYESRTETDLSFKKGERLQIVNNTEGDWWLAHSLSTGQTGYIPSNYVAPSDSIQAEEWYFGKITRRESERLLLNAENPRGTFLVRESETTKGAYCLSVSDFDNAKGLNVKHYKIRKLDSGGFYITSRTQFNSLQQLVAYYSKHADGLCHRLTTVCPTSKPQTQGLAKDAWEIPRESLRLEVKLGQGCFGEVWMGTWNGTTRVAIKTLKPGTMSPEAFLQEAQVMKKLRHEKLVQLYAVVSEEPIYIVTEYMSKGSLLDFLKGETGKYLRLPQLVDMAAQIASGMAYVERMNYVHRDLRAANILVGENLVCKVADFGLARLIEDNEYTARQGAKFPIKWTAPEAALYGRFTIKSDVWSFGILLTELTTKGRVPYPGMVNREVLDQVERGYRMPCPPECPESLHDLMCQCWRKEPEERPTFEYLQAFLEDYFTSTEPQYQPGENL
Assay: Src tyrosine kinase activity, poly E4Y / 32P-ATP phosphorylation assay
Type: biochemical
Conditions: Table 3, Formula II compounds; NI = no inhibition at 100 μg/mL
Procedure: Recombinant human Src was expressed using the baculovirus-insect cell system and purified as published (Budde et al., 1993 and 2000). The tyrosine kinase activity of Src, Csk and FGFr was determined using poly E4Y and ^32P-ATP. […] Poly E4Y is a synthetic peptide whose phosphorylation is measured in this assay by the addition of the radioactively labeled phosphate from the ATP (Budde et al., 1995). […]
Readout name: IC50 (µM)

> print(dat)
                                   molecule                               measured.on  readout.name  reading.unit  recorded.result
1  Cc1ccc(S(=O)(=O)Nc2ccc(N3CCOCC3)cc2NS(=O)(=O)c2ccc(C)cc2)cc1 [Compound 17f]  Recombinant human Src (Homo sapiens, UniProt P12931)          IC50            µM               38
2  COc1ccc(Oc2ccc(NS(=O)(=O)c3ccc(C)cc3)c(NS(=O)(=O)c3ccc(Br)s3)c2)cc1 [Compound 22gg]  Recombinant human Src (Homo sapiens, UniProt P12931)          IC50            µM               24
3  Cc1ccc(S(=O)(=O)Nc2ccc(Oc3ccc(Cl)cc3)cc2NS(=O)(=O)c2ccc(C)cc2)cc1 [Compound 12w]  Recombinant human Src (Homo sapiens, UniProt P12931)          IC50            µM              5.5
4  Cc1ccc(S(=O)(=O)Nc2ccc(OCC3CCCCC3)cc2NS(=O)(=O)c2ccc(C)cc2)cc1 [Compound 15f]  Recombinant human Src (Homo sapiens, UniProt P12931)          IC50            µM               42
